System: NCI-H1299
Test: In-vitro antiproliferative assay, NCI-H1299
Type: cell-based
Conditions: Homo sapiens, NCI-H1299; Table 3; 72 h, Alamar blue; read-out: IC50 NCI-H1299
Measurement label: IC50 (µM)
Entry rule: numbers only, all in µM.

Q: What value of IC50 has been reported for the following molecule? Cc1nn(C)c(C)c1N[S+](=O)([O-])c1ccc(-c2cccc(CN3CCN(C)CC3)c2)cc1 [DDD86212]
A: 1.08

###

I'd appreciate it if you could supply log10 of IC50 values for the items below.
Biological target: T. brucei N-myristoyl transferase (Trypanosoma brucei brucei (strain 927/4 GUTat10.1))
Sequence (Q388H8 1-446): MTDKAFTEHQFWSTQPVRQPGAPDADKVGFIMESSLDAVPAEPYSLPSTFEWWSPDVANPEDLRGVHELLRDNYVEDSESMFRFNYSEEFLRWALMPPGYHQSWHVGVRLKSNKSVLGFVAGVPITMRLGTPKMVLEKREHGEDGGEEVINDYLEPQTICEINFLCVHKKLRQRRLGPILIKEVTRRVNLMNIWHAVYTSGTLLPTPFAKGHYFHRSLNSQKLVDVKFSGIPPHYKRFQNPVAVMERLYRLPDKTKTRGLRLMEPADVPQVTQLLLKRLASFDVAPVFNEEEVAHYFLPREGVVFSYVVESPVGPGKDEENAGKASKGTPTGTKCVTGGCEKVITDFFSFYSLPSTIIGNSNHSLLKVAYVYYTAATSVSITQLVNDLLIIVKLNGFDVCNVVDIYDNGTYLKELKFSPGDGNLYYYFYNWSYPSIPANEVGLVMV
Assay: biochemical
Assay type: biochemical
Details: value with no enzyme tag in the cell; taken as T. brucei NMT; read-out: IC50 (μM) NMT Enzyme
Log scale reminder: IC50 in µM, then log10 taken.

Q: Param item = CCN(C)Cc1cccc(-c2ccc([S+](=O)([O-])Nc3c(CC(C)C)nn(C)c3C)cc2)c1 ; retrieve measured log10 of IC50.
A: -2.30

Q: Now this one: Cc1nn(C)c(C)c1N[S+](=O)([O-])c1ccc(COCCCN2CCN(C)CC2)cc1
A: 1.68

Q: Then what about the compound Cc1nn(C)c(C)c1N(C)[S+](=O)([O-])c1ccc(CCCCCCn2ccnc2)cc1 ?
A: -0.98

Q: What do you have for Cc1cc(Br)ccc1[S+](=O)([O-])Nc1c(C)nn(C)c1C ?
A: 1.10

Q: Queued: Cc1nn(C)c(C)c1N(CCCO)[S+](=O)([O-])c1ccc(-c2ccnc(N3CCNCC3)c2)cc1
A: -1.30

Q: Param item: Cc1nn(C)c(C)c1N(C)[S+](=O)([O-])c1ccc(CCCCN(C)C)cc1
A: 0.32

Q: What about Cc1c(N[S+](=O)([O-])c2c(Cl)cc(CCCC3CCNCC3)cc2Cl)c(CC(C)C)nn1C ?
A: -2.40

Q: Now this one: Cc1nn(C)c(C)c1N[S+](=O)([O-])c1ccc(-c2cccc(C=O)c2)cc1
A: 0.78
